- Tested on: 429239-143-T-J1-PDC complex spheroid viability
- assay.procedure: Anticancer human tumor 429239-143-T-J1-PDC patient-derived small cell lung carcinoma cell line growth inhibition [POLQ]
- details: curve of first compound; second compound 0.0316 µM
The entries below are paired with their reported IC50.
Please respond with the number in nM and leave the unit unwritten.

Use the examples below as a reference point.
compound	readout.number
O=c1[nH]cc(F)c(=O)[nH]1 + Nc1ccc(C#CCN(C(=O)Cc2ncc(C(F)(F)F)cc2C(F)(F)F)c2ccc(F)cc2)nn1	3240
CNCc1ccc(-c2[nH]c3cc(F)cc4c3c2CCNC4=O)cc1 + Nc1ccc(C#CCN(C(=O)Cc2ncc(C(F)(F)F)cc2C(F)(F)F)c2ccc(F)cc2)nn1	6530
COc1cccc2c1C(=O)c1c(O)c3c(c(O)c1C2=O)CC(O)(C(=O)CO)CC3OC1CC(N)C(O)C(C)O1 (configuration not stated) + COC1C(OC(N)=O)C(O)C(Oc2ccc3c(O)c(NC(=O)c4ccc(O)c(CC=C(C)C)c4)c(=O)oc3c2C)OC1(C)C	41.1
CC1COCCN1c1cc(C2(S(C)(=N)=O)CC2)nc(-c2ccnc3[nH]ccc23)n1 (configuration not stated) + Cc1cccc(N(C)C(=O)C2C(O)CCN2c2nc(C)cc(C(F)(F)F)c2C#N)c1	2210

query: Please supply the value of reported IC50 for the item CC1COCCN1c1cc(-c2ccnn2C)c2ccnc(-c3ccn[nH]3)c2n1 (configuration not stated) + COC1C(OC(N)=O)C(O)C(Oc2ccc3c(O)c(NC(=O)c4ccc(O)c(CC=C(C)C)c4)c(=O)oc3c2C)OC1(C)C
result: 82.2

---

- System: 429239-143-T-J1-PDC complex spheroid viability
- assay.procedure: Anticancer human tumor 429239-143-T-J1-PDC cell line growth inhibition [POLQ];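 also: luminescence signal used as surrogate measure of viable cells; spheroids exposed to compounds for seven days before readout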
- details: curve of first compound; second compound 0.316 µM
reported.metric: IC50 (nM)
Please respond with the number in nM and leave the unit unwritten.

Use the examples below as a reference point.
molecule	experimental.system	IC50 / nM
O=C(c1cc(Cc2n[nH]c(=O)c3ccccc23)ccc1F)N1CCN(C(=O)C2CC2)CC1 + Nc1ccc(C#CCN(C(=O)Cc2ncc(C(F)(F)F)cc2C(F)(F)F)c2ccc(F)cc2)nn1	429239-143-T-J1-PDC complex spheroid viability	4090
CC1COCCN1c1cc(-c2ccnn2C)c2ccnc(-c3ccn[nH]3)c2n1 (stereo unspecified) + Nc1ccc(C#CCN(C(=O)Cc2ncc(C(F)(F)F)cc2C(F)(F)F)c2ccc(F)cc2)nn1	429239-143-T-J1-PDC complex spheroid viability	466
CC1COCCN1c1cc(C2(O)CC3CCC(C2)O3)c2cnn(-c3ccn[nH]3)c2n1 (stereo unspecified) + Nc1ccc(C#CCN(C(=O)Cc2ncc(C(F)(F)F)cc2C(F)(F)F)c2ccc(F)cc2)nn1	429239-143-T-J1-PDC complex spheroid viability	269
COc1cccc(OCCCN)c1-c1cc(Nc2cnc(C#N)cn2)n[nH]1 + COC1C(OC(N)=O)C(O)C(Oc2ccc3c(O)c(NC(=O)c4ccc(O)c(CC=C(C)C)c4)c(=O)oc3c2C)OC1(C)C	429239-143-T-J1-PDC complex spheroid viability	69.6

Let us move to another entry and its IC50.
query: Please supply the value of reported IC50 for the item COc1cc(C2c3cc4c(cc3C(OC3OC5COC(C)OC5C(O)C3O)C3COC(=O)C23)OCO4)cc(OC)c1O (stereo unspecified) + Cc1cccc(N(C)C(=O)C2C(O)CCN2c2nc(C)cc(C(F)(F)F)c2C#N)c1
result: 501
